Data origin: patent US9365553B2

- Test system: histamine-induced skin reaction in mouse
- experiment: Skin reaction test in mouse (Test Example 4)
- Type: in vivo
- conditionDetails: oral, histamine 3 μg/50 μL/site intradermal, pigment area, read-out: Skin reaction test in mouse ID50
# note: boundary value 0.06 mg/kg maps to NOT MET; ED50 below it maps to MET

>>> cat("O=C(O)c1cccc(CN2CCC(=C3c4ccc(Cl)cc4CCc4cccnc43)CC2)c1")
"NOT MET"
>>> cat("O=C(O)c1cccc(CN2CCC(=C3c4ccccc4C=Cc4cccnc43)CC2)n1")
"NOT MET"
>>> cat("O=C(O)c1cccc(CN2CCC(=C3c4ccccc4C=Cc4cccnc43)CC2)c1")
"NOT MET"
>>> cat("O=C(O)CCCN1CCC(O[C@@H](c2ccc(Cl)cc2)c2ccccn2)CC1")
"MET"
>>> cat("O=C(O)c1cccc(CN2CCC(OC(c3ccccc3)c3ccc(Cl)cc3)CC2)n1 (centres unmarked)")
"MET"
>>> cat("O=C(O)c1ccnc(CN2CCC(OC(c3ccc(F)cc3)c3cccc(F)c3)CC2)c1 (centres unmarked)")
"NOT MET"
>>> cat("O=C(O)c1ccnc(CN2CCC(OC(c3ccccc3)c3ccccc3)CC2)c1")
"MET"

* * *

- assaySystem: human H1 receptor (Homo sapiens, UniProt P35367)
- Construct: purchased; host or cells: CHO cells
- Sequence (P35367 whole entry): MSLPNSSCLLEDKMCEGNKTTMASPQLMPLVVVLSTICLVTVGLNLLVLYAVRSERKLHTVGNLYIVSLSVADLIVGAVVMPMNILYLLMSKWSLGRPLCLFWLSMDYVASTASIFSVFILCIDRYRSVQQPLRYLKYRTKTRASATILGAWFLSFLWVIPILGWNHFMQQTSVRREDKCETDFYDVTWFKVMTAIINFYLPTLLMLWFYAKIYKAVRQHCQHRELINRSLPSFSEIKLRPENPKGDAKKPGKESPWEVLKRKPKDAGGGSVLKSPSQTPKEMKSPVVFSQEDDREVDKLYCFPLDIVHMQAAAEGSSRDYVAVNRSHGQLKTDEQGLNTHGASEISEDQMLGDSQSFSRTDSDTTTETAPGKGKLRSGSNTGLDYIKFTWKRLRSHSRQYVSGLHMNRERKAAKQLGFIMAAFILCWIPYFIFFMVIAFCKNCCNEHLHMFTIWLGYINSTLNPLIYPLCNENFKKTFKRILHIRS
- experiment: Human H1 receptor affinity test (Test Example 2)
- Assay type: binding
- conditionDetails: CHO cell membrane preparation expressing human H1 receptor, [3H]-pyrilamine 2 nmol/L
# note: boundary value 9 nM maps to false; IC50 below it maps to true

>>> cat("O=C(O)c1ccnc(CN2CCC(OC(c3ccccc3)c3cccc(F)c3)CC2)c1 (stereo not shown) [Example 40]")
"false"
>>> cat("O=C(O)c1cccc(CN2CCC(=C3c4ccccc4COc4ccccc43)CC2)n1 [Example 80]")
"false"
>>> cat("O=C(O)c1cccc(CN2CCC(OC(c3ccccc3)c3ccccc3)CC2)n1 [Example 2]")
"false"
>>> cat("Cc1ccc(C(OC2CCN(Cc3cc(C(=O)O)ccn3)CC2)c2ccccc2)cc1 (stereo not shown) [Example 41]")
"false"
>>> cat("O=C(O)c1ccnc(CN2CCC(OC(c3ccc(F)cc3)c3ccc(F)cc3)CC2)c1 [Example 124]")
"true"
>>> cat("O=C(O)c1cccc(CN2CC[C@@H](OC(c3ccccc3)c3ccccc3)C2)n1 [Example 128]")
"true"

* * *

- Tested on: histamine-induced skin reaction in rat
- experiment: Histamine-induced skin reaction test in rat (Test Example 3)
- Format: in vivo
- conditionDetails: oral, histamine 10 μg/0.1 mL/site intradermal, pigment area, read-out: Skin reaction test in rat ID50
quantityMeasured: ED50 (mg/kg)

>>> datavalue("O=C(O)c1ccnc(CN2CCC(OC(c3ccccc3)c3ccc(F)cc3)CC2)c1 (stereo not drawn)")
1.3
>>> datavalue("O=C(O)c1cccc(C(F)(F)N2CCC(OC(c3ccccc3)c3ccccc3)CC2)n1")
3.2
>>> datavalue("O=C(O)c1cccc(CN2CCC(=C3c4ccccc4CCc4ccccc43)CC2)c1")
2.1
>>> datavalue("O=C(O)c1cc(F)cc(CN2CCC(OC(c3ccccc3)c3ccccc3)CC2)c1")
0.6
>>> datavalue("O=C(O)c1cccc(CN2CCC(=C3c4ccccc4C=Cc4cccnc43)CC2)c1")
1.6
>>> datavalue("O=C(O)c1cccc(CN2CCC(OC(c3ccccc3)c3ccccc3)CC2)n1")
3.4
>>> datavalue("O=C(O)c1cccc(CN2CCC(OC(c3ccccc3)c3ccc(F)cc3)CC2)n1 (stereo not drawn)")
0.2
>>> datavalue("O=C(O)c1cccc(CN2CCN(C(c3ccc(F)cc3)c3ccc(F)cc3)CC2)n1")
0.3
>>> datavalue("O=C(O)c1cccc(CN2CCC(=C3c4ccc(Cl)cc4CCc4cccnc43)CC2)c1")
1.2
>>> datavalue("O=C(O)c1cccc(CN2CCC(OC(c3ccccc3)c3ccc(Cl)cc3)CC2)n1 (stereo not drawn)")
0.5
>>> datavalue("O=C(O)c1cccc(CN2CCC(=C3c4ccccc4CCc4ccccc43)CC2)n1")
1.2
>>> datavalue("O=C(O)c1cccc(CN2CCC(OC(c3ccccc3)c3ccc(F)c(F)c3)CC2)n1 (stereo not drawn)")
2.9
>>> datavalue("O=C(O)c1cc(CN2CCC(OC(c3ccccc3)c3ccccc3)CC2)cs1")
1.8
>>> datavalue("O=C(O)CCCN1CCC(O[C@@H](c2ccc(Cl)cc2)c2ccccn2)CC1")
0.5
>>> datavalue("O=C(O)c1cccc(CN2CCN(C(c3ccccc3)c3ccc(Cl)cc3)CC2)n1 (stereo not drawn)")
1.8
>>> datavalue("O=C(O)c1cccc(CN2CCC(=C3c4ccccc4C=Cc4cccnc43)CC2)n1")
0.6
>>> datavalue("O=C(O)c1cccc(CN2CCC(OC(c3ccc(F)cc3)c3cccc(F)c3)CC2)n1 (stereo not drawn)")
1.5
>>> datavalue("O=C(O)c1ccnc(CN2CCC(OC(c3ccccc3)c3ccc(Cl)cc3)CC2)c1 (stereo not drawn)")
1.8

* * *

- assaySystem: rat H1 receptor (Rattus norvegicus, UniProt P31390)
- Sequence (P31390 whole entry): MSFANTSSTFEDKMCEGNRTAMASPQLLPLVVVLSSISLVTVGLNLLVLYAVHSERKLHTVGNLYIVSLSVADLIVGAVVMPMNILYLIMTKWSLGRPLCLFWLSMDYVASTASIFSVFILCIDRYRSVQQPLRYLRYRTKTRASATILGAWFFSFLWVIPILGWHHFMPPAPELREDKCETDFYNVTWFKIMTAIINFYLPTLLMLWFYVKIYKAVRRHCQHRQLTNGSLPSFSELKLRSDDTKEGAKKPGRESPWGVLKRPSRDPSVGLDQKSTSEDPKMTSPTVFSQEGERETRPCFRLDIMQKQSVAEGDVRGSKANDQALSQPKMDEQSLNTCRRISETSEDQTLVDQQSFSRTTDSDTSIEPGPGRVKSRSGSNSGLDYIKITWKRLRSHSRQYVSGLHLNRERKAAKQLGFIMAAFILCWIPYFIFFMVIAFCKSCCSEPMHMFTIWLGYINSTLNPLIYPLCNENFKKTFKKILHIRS
# note: boundary value 20 nM maps to false (0); IC50 below it maps to true (1)

>>> cat("O=C(O)c1ccc(CN2CCC(OC(c3ccccc3)c3ccccc3)CC2)[nH]1")
"false (0)"
>>> cat("COc1ccc(C(OC2CCN(Cc3cccc(C(=O)O)n3)CC2)c2ccccc2)cc1 (stereo not drawn)")
"false (0)"
>>> cat("O=C(O)c1cccc(CN2CCC(=C3c4ccccc4C=Cc4cccnc43)CC2)n1")
"true (1)"
>>> cat("O=C(O)c1cccc(CN2CCC(=C3c4ccccc4C=Cc4cccnc43)CC2)c1")
"false (0)"
>>> cat("O=C(O)c1ccnc(CN2CCC(OC(c3ccccc3)c3ccc(F)cc3)CC2)c1 (stereo not drawn)")
"false (0)"
>>> cat("O=C(O)c1cc(CN2CCC(OC(c3ccccc3)c3ccccc3)CC2)cs1")
"true (1)"
>>> cat("Cc1ccc(C(OC2CCN(Cc3cc(C(=O)O)ccn3)CC2)c2ccccc2)cc1 (stereo not drawn)")
"true (1)"
>>> cat("O=C(O)c1cccc(CN2CCC(OC(c3ccccc3)c3ccccc3)C2)n1 (stereo not drawn)")
"true (1)"
>>> cat("O=C(O)c1cc(CN2CCC(OC(c3ccccc3)c3ccccc3)CC2)ccn1")
"false (0)"

* * *

Here's what we have: pIC50 numbers for UniProt:P31390.
pIC50: −log10 of the molar value.
quantityMeasured: pIC50

>>> datavalue("O=C(O)c1cccc(CN2CCC(OC(c3ccccc3)c3ccc(F)cc3)CC2)n1 (stereo not drawn)")
7.05
>>> datavalue("O=C(O)c1coc(CN2CCC(OC(c3ccccc3)c3ccccc3)CC2)n1")
7.26
>>> datavalue("O=C(O)c1cccc(CN2CCC(OC(c3ccccc3)c3cccc(F)c3)CC2)n1 (stereo not drawn)")
7.92

* * *

Here's what we have: IC50 numbers for human H1 receptor (Homo sapiens).
quantityMeasured: IC50

>>> datavalue("O=C(O)c1cc(CN2CCC(OC(c3ccccc3)c3ccccc3)CC2)cs1")
"10 nM"
>>> datavalue("O=C(O)c1ccnc(CN2CC[C@H](OC(c3ccccc3)c3ccccc3)C2)c1")
"15 nM"
>>> datavalue("O=C(O)c1ccnc(CN2CC[C@H](OC(c3ccc(F)cc3)c3ccc(F)cc3)C2)c1")
"13 nM"
>>> datavalue("O=C(O)c1ccnc(CN2CCC(OC(c3ccccc3)c3ccccc3)CC2)c1")
"8.9 nM"
>>> datavalue("O=C(O)CCCN1CCC(O[C@@H](c2ccc(Cl)cc2)c2ccccn2)CC1")
"20 nM"
>>> datavalue("O=C(O)c1cccc(CN2CCC(OC(c3ccccc3)c3cccc(Cl)c3)CC2)n1 (centres unmarked)")
"17 nM"
>>> datavalue("O=C(O)c1ccnc(CN2CCC(OC(c3ccccc3)c3ccc(F)c(F)c3)CC2)c1 (centres unmarked)")
"4.9 nM"
>>> datavalue("O=C(O)c1ccc(CN2CCC(OC(c3ccccc3)c3ccccc3)CC2)o1")
"14 nM"
>>> datavalue("O=C(O)c1ccc(CN2CCC(OC(c3ccccc3)c3ccc(Cl)cc3)CC2)o1 (centres unmarked)")
"12 nM"
>>> datavalue("O=C(O)c1cccc(CN2CCC(=C3c4ccccc4C=Cc4cccnc43)CC2)c1")
"14 nM"
>>> datavalue("O=C(O)c1ccnc(CN2CCC(OC(c3ccc(F)cc3)c3cccc(F)c3)CC2)c1 (centres unmarked)")
"6.7 nM"
>>> datavalue("O=C(O)c1ccc(CN2CCC(OC(c3ccccc3)c3ccccc3)CC2)[nH]1")
"15 nM"
>>> datavalue("COc1ccc(CN2CCC(OC(c3ccccc3)c3ccc(F)c(F)c3)CC2)nc1C(=O)O (centres unmarked)")
"14 nM"
>>> datavalue("O=C(O)c1cc(F)cc(CN2CCC(OC(c3ccccc3)c3ccccc3)CC2)c1")
"11 nM"
>>> datavalue("O=C(O)c1cccc(CN2CCC(OC(c3ccccc3)c3ccc(F)c(F)c3)CC2)n1 (centres unmarked)")
"25 nM"
>>> datavalue("O=C(O)c1cccc(CN2CC[C@H](OC(c3ccccc3)c3ccccc3)C2)n1")
"5.1 nM"
>>> datavalue("O=C(O)c1ccnc(CN2CCC(=C3c4ccccc4C=Cc4ccccc43)CC2)c1")
"8.9 nM"
